Test system: Polyadenylate-binding protein 1 (Homo sapiens, UniProt P11940)
Sequence (P11940 whole entry): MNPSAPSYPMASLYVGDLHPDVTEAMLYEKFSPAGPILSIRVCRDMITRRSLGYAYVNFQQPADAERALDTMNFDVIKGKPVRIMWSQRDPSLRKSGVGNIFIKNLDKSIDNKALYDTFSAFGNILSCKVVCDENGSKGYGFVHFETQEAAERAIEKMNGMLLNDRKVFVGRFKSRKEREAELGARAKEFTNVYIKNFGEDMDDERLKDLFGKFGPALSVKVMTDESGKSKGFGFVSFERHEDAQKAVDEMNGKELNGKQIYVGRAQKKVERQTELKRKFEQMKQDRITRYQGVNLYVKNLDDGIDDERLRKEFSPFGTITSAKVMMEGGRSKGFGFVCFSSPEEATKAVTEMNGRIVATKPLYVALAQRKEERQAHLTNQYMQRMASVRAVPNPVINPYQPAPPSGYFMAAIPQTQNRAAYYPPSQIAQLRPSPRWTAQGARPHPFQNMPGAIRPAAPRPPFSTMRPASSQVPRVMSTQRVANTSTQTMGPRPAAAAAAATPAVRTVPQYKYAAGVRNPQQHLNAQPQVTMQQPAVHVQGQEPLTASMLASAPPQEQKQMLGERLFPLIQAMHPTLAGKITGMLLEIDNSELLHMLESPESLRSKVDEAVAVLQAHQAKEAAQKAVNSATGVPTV
Assay text: PABP1 MLLE–PAM2 binding inhibitor potency, dose response, biochemical, fluorescence polarization, FITC-PAM2 peptide (AID 602259)
Assay type: functional
Study conditions: read-out: IC50_Mean
Calls of active or inactive are those of the source.
Readout kind: IC50

> print(dat)
                                   molecule                               test.system  readout.kind        assay.result
1           ON=CN=C(S)Nc1ncc(C(F)(F)F)cc1Cl  Polyadenylate-binding protein 1 (Homo sapiens, UniProt P11940)          IC50  > 66 µM (inactive)
2  CCCCC1=CC2=CC(=O)C(C)(OC(=O)CC)C(=O)C2=CN1CCCCO (stereo not drawn)  Polyadenylate-binding protein 1 (Homo sapiens, UniProt P11940)          IC50  > 66 µM (inactive)
3  CC(=O)c1cccc(NC(=S)NC(=O)c2ccc(Br)cc2)c1  Polyadenylate-binding protein 1 (Homo sapiens, UniProt P11940)          IC50  > 66 µM (inactive)
4  COc1ccc(CC2C(=O)N(C)C(=O)N(C)C2=O)c(OC)c1  Polyadenylate-binding protein 1 (Homo sapiens, UniProt P11940)          IC50  > 66 µM (inactive)
5  CC(CNc1ccccc1O)C(=O)O (stereo not drawn)  Polyadenylate-binding protein 1 (Homo sapiens, UniProt P11940)          IC50  > 66 µM (inactive)
6       N#CCCN(C(=S)NC(=O)c1ccco1)c1ccccc1F  Polyadenylate-binding protein 1 (Homo sapiens, UniProt P11940)          IC50  > 66 µM (inactive)
7  O=C(CC(SCCO)c1ccc2c(c1)OCO2)c1cccs1 (stereo not drawn)  Polyadenylate-binding protein 1 (Homo sapiens, UniProt P11940)          IC50  > 66 µM (inactive)
8  COCCN1CN(S(=O)(=O)c2ccccc2)c2nc3ccccc3nc21  Polyadenylate-binding protein 1 (Homo sapiens, UniProt P11940)          IC50  55.4 µM (inactive)

* * *

Test system: Rac GTPase-activating protein 1 (Homo sapiens, UniProt Q9H0H5)
Sequence (Q9H0H5 whole entry): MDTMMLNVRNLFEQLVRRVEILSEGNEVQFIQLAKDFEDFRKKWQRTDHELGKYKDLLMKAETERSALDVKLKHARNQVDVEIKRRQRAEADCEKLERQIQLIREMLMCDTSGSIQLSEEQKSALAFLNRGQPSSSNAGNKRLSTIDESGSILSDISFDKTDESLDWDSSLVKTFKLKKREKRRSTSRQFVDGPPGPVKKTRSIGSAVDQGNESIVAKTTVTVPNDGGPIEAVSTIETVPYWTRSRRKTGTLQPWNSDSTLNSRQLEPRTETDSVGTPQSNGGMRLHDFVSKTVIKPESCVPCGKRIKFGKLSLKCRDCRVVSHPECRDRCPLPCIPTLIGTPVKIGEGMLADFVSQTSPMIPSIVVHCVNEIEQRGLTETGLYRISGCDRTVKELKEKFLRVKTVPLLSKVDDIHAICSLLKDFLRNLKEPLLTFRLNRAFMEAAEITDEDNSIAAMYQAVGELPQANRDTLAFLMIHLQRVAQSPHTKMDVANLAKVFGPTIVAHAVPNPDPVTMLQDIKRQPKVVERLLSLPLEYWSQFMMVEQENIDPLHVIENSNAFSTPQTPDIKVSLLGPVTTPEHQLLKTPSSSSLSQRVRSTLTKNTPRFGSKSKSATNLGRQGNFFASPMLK
Assay text: MgcRacGAP GTPase-activating activity inhibitors, confirmation, biochemical, ADP Hunter fluorescence, primary and confirmatory (AID 624330)
Format: functional
The source made the active and inactive calls.
Readout kind: IC50

> print(dat)
                                   molecule                               test.system  readout.kind      assay.result
1   COc1cc(-c2nc3cnccn3c2Nc2ccc(C)cc2)ccc1O  Rac GTPase-activating protein 1 (Homo sapiens, UniProt Q9H0H5)          IC50  29.3 µM (active)
2      COC(=O)c1cc(NCc2ccccc2F)ccc1N1CCOCC1  Rac GTPase-activating protein 1 (Homo sapiens, UniProt Q9H0H5)          IC50   168 µM (active)
3                          CCOc1ccc(N)cc1OC  Rac GTPase-activating protein 1 (Homo sapiens, UniProt Q9H0H5)          IC50  42.9 µM (active)
4  CC1(C)CC(=O)C(C(C2=C(O)CC(C)(C)CC2=O)c2ccc(Br)s2)C(=O)C1 (stereo unspecified)  Rac GTPase-activating protein 1 (Homo sapiens, UniProt Q9H0H5)          IC50  61.5 µM (active)
5        CCc1nnc(N/N=C/c2cc(Br)c(O)cc2O)n1N  Rac GTPase-activating protein 1 (Homo sapiens, UniProt Q9H0H5)          IC50  66.2 µM (active)
6                       CCOC(=O)c1sc(S)nc1C  Rac GTPase-activating protein 1 (Homo sapiens, UniProt Q9H0H5)          IC50    50 µM (active)

* * *

Test system: Streptokinase A (Streptococcus pyogenes serotype M1)
Sequence (P10520 whole entry): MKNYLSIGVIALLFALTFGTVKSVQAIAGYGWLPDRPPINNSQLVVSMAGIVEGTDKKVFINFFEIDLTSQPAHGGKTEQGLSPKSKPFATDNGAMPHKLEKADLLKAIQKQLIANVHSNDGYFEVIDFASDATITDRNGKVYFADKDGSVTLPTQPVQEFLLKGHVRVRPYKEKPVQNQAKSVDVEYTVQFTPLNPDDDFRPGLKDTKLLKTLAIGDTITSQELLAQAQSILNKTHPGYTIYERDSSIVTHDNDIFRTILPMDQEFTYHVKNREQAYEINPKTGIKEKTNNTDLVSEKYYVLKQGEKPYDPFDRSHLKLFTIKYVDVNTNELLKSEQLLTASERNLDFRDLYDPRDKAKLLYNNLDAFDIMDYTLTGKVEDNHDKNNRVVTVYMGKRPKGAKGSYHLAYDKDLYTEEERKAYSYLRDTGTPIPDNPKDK
Assay text: S. pyogenes streptokinase expression inhibitors, potency, dose response, plasminogen activation absorbance, OD405 (AID 1914);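 further: secreted streptokinase activity via plasminogen activation per viability signal from cell pellet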
Format: functional, Streptococcus pyogenes M1 GAS
Reported values of EC50 for individual entries
Readout kind: EC50

> print(dat)
                           smiles.structure           assay.result
1             CC(C)Nc1nc(NC(C)C)nc(N(C)N)n1  > 150 µM (not active)
2  O=C(NC(=S)N(Cc1ccccc1)Cc1ccccc1)c1ccccc1F  > 150 µM (not active)
3  COc1ccc(C(=O)NC(=S)N(Cc2ccccc2)Cc2ccccc2)cc1  > 150 µM (not active)

* * *

Test system: CAAX prenyl protease 2 (Homo sapiens, UniProt Q9Y256)
Sequence (Q9Y256 whole entry): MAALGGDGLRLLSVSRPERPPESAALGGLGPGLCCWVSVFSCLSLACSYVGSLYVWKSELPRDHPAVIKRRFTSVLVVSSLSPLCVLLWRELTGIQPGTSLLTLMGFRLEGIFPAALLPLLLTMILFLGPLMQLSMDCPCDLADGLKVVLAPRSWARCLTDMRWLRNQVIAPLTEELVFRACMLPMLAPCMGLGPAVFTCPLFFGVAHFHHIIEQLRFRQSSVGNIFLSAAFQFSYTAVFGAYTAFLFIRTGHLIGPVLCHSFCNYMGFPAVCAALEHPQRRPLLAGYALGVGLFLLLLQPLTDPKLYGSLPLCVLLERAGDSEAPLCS
Assay text: human Rce1 protease inhibitors, dose response, biochemical, yeast membranes, quenched-peptide fluorescence, cherry-pick (AID 588849)
Active and inactive are the calls of the source.
Each record here notes measured AC50.
Readout kind: AC50

> print(dat)
                           smiles.structure  readout.kind      assay.result
1  COc1ccc(Cn2c(N)c(S(=O)(=O)c3cccs3)c3nc4ccccc4nc32)cc1          AC50  4.33 µM (active)
2    COc1ccc(CNC(=O)c2ccccc2NS(C)(=O)=O)cc1          AC50  11.7 µM (active)
3  CN(C)/C=N/c1c(C#N)cnn1-c1ncnc2sc(-c3ccccc3)cc12          AC50  19.1 µM (active)
4      CCOc1c2ccc(C(=O)NCc3ccco3)cc2nn1CCOC          AC50  12.3 µM (active)

* * *

Test system: DNA dC->dU-editing enzyme APOBEC-3G (Homo sapiens)
Type: functional
The source made the active and inactive calls.
Labels: active, inactive

> print(dat)
                           smiles.structure  discrete.label
1  CN1CCN(S(=O)(=O)c2cccc(C(=O)N(C)CC(=O)Nc3ccc(F)c(F)c3F)c2)CC1          active
2            C[n+]1ccc(C(=O)Nc2ccccc2Cl)cc1          active
3    Cc1ccc2[nH]cc(/C=C/c3cc[n+](C)cc3)c2c1        inactive
4  CCN1CCN(S(=O)(=O)c2ccc(Cl)c(C(=O)N(CC)CC(=O)Nc3ccc(OC)cc3)c2)CC1          active
5          CSc1nnc(-c2ccncc2)n1CCCN1CCCC1=O          active

* * *

Test system: DNA dC->dU-editing enzyme APOBEC-3G (Homo sapiens, UniProt Q9HC16)
Sequence (Q9HC16 whole entry): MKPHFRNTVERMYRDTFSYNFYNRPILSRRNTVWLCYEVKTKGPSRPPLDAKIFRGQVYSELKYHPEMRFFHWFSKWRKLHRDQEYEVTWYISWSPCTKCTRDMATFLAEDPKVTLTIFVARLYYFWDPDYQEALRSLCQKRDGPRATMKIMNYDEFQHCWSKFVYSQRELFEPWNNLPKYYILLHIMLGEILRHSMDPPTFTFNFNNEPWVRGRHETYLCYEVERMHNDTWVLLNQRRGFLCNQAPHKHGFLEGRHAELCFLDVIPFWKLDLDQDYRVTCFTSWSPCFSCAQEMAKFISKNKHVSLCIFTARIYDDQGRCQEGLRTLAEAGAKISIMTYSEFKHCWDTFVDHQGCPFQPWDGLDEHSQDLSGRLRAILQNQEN
Assay text: Dose Response confirmation of small molecule APOBEC3G DNA Deaminase Inhibitors via a fluorescence-based single-stranded DNA deaminase assay. [Related pubchem assays (depositor defined):AID493012, AID493028]
Format: functional
Activity calls are given as the source filed them.
Here the recorded IC50 is given for each entry.
Readout kind: IC50

> print(dat)
                                   compound                               test.system  readout.kind      assay.result
1     Cc1ccccc1C(=O)NNC(=S)NC(=O)COc1ccccc1  DNA dC->dU-editing enzyme APOBEC-3G (Homo sapiens, UniProt Q9HC16)          IC50  12.7 µM (active)
2  CCN(CC)c1ccc(NC(=O)c2ccccn2)cc1S(=O)(=O)Nc1ccccc1OC  DNA dC->dU-editing enzyme APOBEC-3G (Homo sapiens, UniProt Q9HC16)          IC50  69.2 µM (active)
3  CC(NC(=O)c1sc2cc([N+](=O)[O-])ccc2c1Cl)C(C)(C)C (centres undefined)  DNA dC->dU-editing enzyme APOBEC-3G (Homo sapiens, UniProt Q9HC16)          IC50  18.4 µM (active)
4  CN(C)S(=O)(=O)c1cccc(-n2sc3ccccc3c2=O)c1  DNA dC->dU-editing enzyme APOBEC-3G (Homo sapiens, UniProt Q9HC16)          IC50  9.11 µM (active)

* * *

Test system: Bcl-2-related protein A1 (Mus musculus);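 further: confirmatory dose–response counterscreen on Bfl-1, used to check hits from a UBC13 polyubiquitin inhibitor campaign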
Sequence (Q07440 whole entry): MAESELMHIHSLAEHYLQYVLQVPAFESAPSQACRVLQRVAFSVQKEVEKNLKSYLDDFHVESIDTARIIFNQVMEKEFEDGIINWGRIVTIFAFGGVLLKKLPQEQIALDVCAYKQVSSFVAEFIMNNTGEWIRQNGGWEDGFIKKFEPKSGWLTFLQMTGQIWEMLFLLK
Format: functional
Calls of active or inactive are those of the source.
Outcome codes: active, inactive

> print(dat)
                                   molecule  discrete.label
1  COC(=O)c1ccc(Cn2c(O)c(/N=N/C(=N)S)c3ccccc32)o1        inactive
2  O=C(NNC(=O)c1nn(-c2ccc(F)cc2)ccc1=O)c1ccccc1Cl        inactive
3  c1coc(-c2nc(-c3ccco3)c(-c3ccco3)nc2-c2ccco2)c1          active
4  CCOc1ccccc1NC(=O)C(OC(=O)c1ccc(O)cc1)c1ccccc1 (centres undefined)        inactive
